- Measured target: T1, corticotropin releasing factor 2 receptor
- T1 sequence (Q13324 whole entry, species assumed, looked up): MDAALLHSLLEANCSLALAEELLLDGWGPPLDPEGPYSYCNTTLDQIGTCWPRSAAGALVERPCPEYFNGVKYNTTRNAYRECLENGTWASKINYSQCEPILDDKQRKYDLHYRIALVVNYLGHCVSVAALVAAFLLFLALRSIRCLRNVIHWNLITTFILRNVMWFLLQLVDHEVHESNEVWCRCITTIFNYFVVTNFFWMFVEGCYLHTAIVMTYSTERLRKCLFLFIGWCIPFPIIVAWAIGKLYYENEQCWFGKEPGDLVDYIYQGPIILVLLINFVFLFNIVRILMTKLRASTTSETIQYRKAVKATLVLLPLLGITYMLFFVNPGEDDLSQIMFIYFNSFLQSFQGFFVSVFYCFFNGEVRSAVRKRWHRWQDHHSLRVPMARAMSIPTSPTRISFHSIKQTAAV
- Assay name: cell-based or functional assay
Ends that are not written are not given here.
Reported metric: CRF2R EC50 (nM)
Number in nM, nothing else.

ZGPPISIDLPFQLLRKMIEIEKQEKEKQQATTNRLLLDRV (C-terminal amide) [SEQ ID NO 18] : 5.29
ZGPPISIDLPFGLLRKMIEIEKQEKEKQQAANNRLLLDTI (C-terminal amide) [SEQ ID NO 68] : 38.5
ZGPPISIDLPSYLLRKMIEIEKQEKEKQQAANNRLLLDTI (C-terminal amide) [SEQ ID NO 56] : 50.4
IVLSLDVPIGLLQILLEQEKQRAAREQATTNARILARV-NH2 [SEQ ID NO 115] : 13.6
ZGPPISIDLPHHLLRKMIEIEKQEKEKQQAANNRLLLDTI (C-terminal amide) [SEQ ID NO 205] : 25

Consider now this further binder.
Form: binder = ZGPPISIDLPQILLRKMIEIEKQEKEKQQAANNRLLLDTI (C-terminal amide) [SEQ ID NO 199] ; CRF2R EC50 = 8.5
